Data credit: a melting point compilation (Tetko et al.)

measuredProperty: melting point (°C)

Observe how each entry below is paired with its result.
                                   compound  measuredproperty  endpointresult
0  O=[N+]([O-])c1ccc(C=Cc2cccc3ccccc23)c([N+](=O)[O-])c1     melting point             228
1                             NC(=O)CC(N)=O     melting point             169
2              COc1nn(CSP(=S)(OC)OC)c(=O)s1     melting point            39.5

a = COC=C(C(=O)OC)C(=O)OC
b = CC(=O)N1C(=O)/C(=C(\C#Cc2ccccc2)C(=O)c2ccccc2)c2ccccc21
c = COc1ccc(C2Cc3ccccc3C(O)O2)cc1 (stereo not given)
Given 3 compounds, produce a descending ranking by melting point. Return value: ordered labels per request.
b, c, a

a = COc1ccc(C2(C)CCc3oc4c(Br)cc(Br)cc4c3-c3oc(C)cc32)cc1 (stereo not given)
b = O=c1occc2ccccc12
c = COc1ccc(-c2cc(=O)c3c(O)cc(O)cc3o2)cc1
Put the entries in order of melting point, starting with the largest number. Write the labels out in the order the request specifies.
c, a, b
(c: 263 °C, a: 165 °C, b: 47 °C)

====

measuredProperty: melting point (°C)

P = COc1ccc(C(F)(F)F)cc1CBr
Q = C=C(C)c1ccc(C)cc1
From the items above, decide which of P and Q has the lower melting point reading. Identify your selection by its label.
Q

====

measuredProperty: melting point (°C)

Consider the worked cases shown below.
>>> df
                                   compound  measuredproperty  endpointresult
0                    N[C@H](C(=O)O)C1CCCCC1     melting point             256
1  CC1=NN(c2ccccc2)C(=O)C1Cc1ccc(O)cc1 (stereo unspecified)     melting point             210
2                   CCCCNC(=O)c1ccc(Cl)cc1O     melting point            91.5

A = CNN=C(N)C(S)=NNC
B = O=[N+]([O-])c1cc(Cl)ccc1F
Higher melting point between A and B ? Reply briefly: the label of your chosen item.
A
(A: 185 °C, B: 8.3 °C)

a = CC(=O)C=C(C)N
b = Cc1n[nH]c(C)c1Cc1ccccc1
I need your help: which of the pair a , b has higher melting point? Response format: the label of the selected entry.
b
(b: 119 °C, a: 39 °C)

a = C1SSCSSS1
b = Clc1cc(Cl)c2oc3c(Cl)c(Cl)cc(Cl)c3c2c1
Which of the two items, a and b , has the greater recorded melting point? Answer by quoting the chosen item's label.
b
(b: 204 °C, a: 60.5 °C)

====

measuredProperty: melting point (°C)

Here is how some molecules turned out for melting point.
>>> print(df.to_string())
                                   molecule  measuredproperty  unitabbrev  endpointresult
0  O=C1c2ccccc2NC1(OC1(c2ccccn2)Nc2ccccc2C1=O)c1ccccn1 (stereo unspecified)     melting point          °C             240
1                      O=C(O)c1cnc2ccccc2n1     melting point          °C             206

1 = CC(=O)Nc1ccc(S(N)(=O)=O)cc1
2 = C=CCC(/C=C1\C(=O)C2(C)CCC1C2(C)C)(/C=C1\C(=O)C2(C)CCC1C2(C)C)C(=O)OCC (stereo unspecified)
Lab notebook, comparison: 1 versus 2 , higher melting point goes to which? Select an item and report its label.
1
